FYI, the data here is from patent US20180258175A1.

# Measurement Target: T1, human CD115 extracellular domain (Sino Biological 10161-H08H) (human, UniProt P07333 20-517)
# T1 construct: extracellular domain; bought recombinant protein; also called huCD115; hu-CD115
# Protocol: competition ELISA, competitor TMR 20A;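 further: epitope binning by ELISA, anti-huCD115 hybridoma supernatant antibodies tested for binding to huCD115 with the competitor antibody present, loss of binding placing them in the competitor's bin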;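 further: low signal means same epitope bin as the mouse competitor antibody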
Recorded Endpoint: signal vs NO COMP=100
Report field: quantity (unit follows the number).

Please review the following examples before continuing.
CCK-525A (antibody, V domains shown, AlivaMab chimeric IgG, human kappa LC) VH: QVQLVESGGGVVQPGRSLRLSCAASGFTFSSYGMHWVRQAPGKGLEWVAVIWYDGSIKYYADSVKGRFTISRDNSKNTLYLQMNSLRAEDTAVYYCARATYYYDSSGYYSNWFDPWGQGTLVTVSS VL: DIQMTQSPSSVSASVGDRVTITCRASQGISSWLAWYQQKPGKAPKLLIYAASSLQSGVPSRFSGSGSGTDFTLTISSLQPEDFATYYCQQANTFPFTVGPGTKVDIK ... 80%
CCK-421A (antibody, V domains shown, AlivaMab chimeric IgG, human kappa LC) VH: QVQLQESGPGLVKPSETLSLTCTVTGGSISSYYWSWIRQPAGKGLEWIGRIYTSGSTNYNPSLKSRVTMSVDTSKNHFSLKLSSVTAADTAVYYCAREILVVVAATRTGGVFDIWGQGTMVTVSS VL: DIQMTQSPSTLSASVGDRVTITCRASQSISSWLAWYQRKPGKAPKLLIYKASTLESGVPSRFSGSGSGTEFTLTISSLQPDDFATYYCQQFNSYWTFGQGTKVEIK ... 104%
CCK-424A (antibody, V domains shown, AlivaMab chimeric IgG, human kappa LC) VH: QVQLQESGPGLVKPSETLSLTCTVSGGSISSYYWSWIRQPPGKVLEWIGYFSYNGNTNYNPSLKSRVTISVDTSKNQFSLKLSSVTAADTAVYYCTRGMDVWGQGTTVTVSS VL: DIQMTQSPSTLSASVGDRVTITCRASQSISDWLAWYLQKPGKAPKLLIYKASSLESGVPSRFSGSGSGTAFTLTISSLQPDDFATYYCQQYNSHWTFGQGTKVEIK ... 98%
429 (Table 4, bin 1C block) (antibody, V domains shown, not tied) VH: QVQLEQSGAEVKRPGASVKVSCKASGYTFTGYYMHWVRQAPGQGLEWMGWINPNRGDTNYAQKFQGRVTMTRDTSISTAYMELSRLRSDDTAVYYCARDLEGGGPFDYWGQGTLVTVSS VL: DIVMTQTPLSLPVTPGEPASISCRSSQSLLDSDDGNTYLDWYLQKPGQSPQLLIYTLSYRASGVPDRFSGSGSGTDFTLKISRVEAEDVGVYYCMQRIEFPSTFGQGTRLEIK ... 84%

Record CCK-465A (antibody, V domains shown, AlivaMab chimeric IgG, human kappa LC) VH: QVQLQESGPGLVKPSETLSLSCTVSGGSISSYYWSWIRQPAGKGLEWIGRIYTSGSTNYNPSLKSRVTMSVDTSKNQFSLKLSSVTAADTAVYYCARDRSFYGMDVWGQGTTVTVSS VL: DIQMTQSPSSLSASVGDRVTITCRASQGFSNYLAWYQQKPGKVPKLLIYAASTLQSGVPSRFSGSGSGTDFTLTISSLQPEDVATYYCQKYNSAPLTFGGGTKVEIK . Reported signal vs NO COMP=100: 78%
